molecular target: human muscarinic M4 receptor (Homo sapiens); construct: expressed in transfected cells; test: Alphascreen Surefire phospho-ERK1/2 functional assay, M4; format: cell-based; conditions: CHO, read-out: M4 % Emax cf. ACh, CHO cells stably expressing human M4; Emax relative to ACh
Parameter: Emax (%)

# Molecule, Assayed system, Parameter, Meas value
records = [
    ("CCOC(=O)N1CCC2(CC(N3CCC4(CC3)CN(C(C)C)C(=O)O4)C2)C1 (single isomer, unassigned) [4-8 Isomer 2]", "human muscarinic M4 receptor (Homo sapiens)", "Emax", 58),
    ("CCOC(=O)N1CCC2(CC(N3CCC4(CC3)OC(=O)NC4CC(F)(F)F)C2)C1 (single isomer, unassigned) [4-17 Isomer 1 (racemic)]", "human muscarinic M4 receptor (Homo sapiens)", "Emax", 107),
    ("CCOC(=O)N1CCC2(CC(N3CCC4(CC3)OC(=O)NC4C)C2)C1 (single isomer, unassigned) [4-11 Isomer 2]", "human muscarinic M4 receptor (Homo sapiens)", "Emax", 102),
    ("CCCN1CC2(CCN(C3CC4(CCN(C(=O)OCC)C4)C3)CC2)OC1=O (single isomer, unassigned) [4-7 Isomer 2]", "human muscarinic M4 receptor (Homo sapiens)", "Emax", 69),
    ("CCOC(=O)N1CCC2(CC(N3CCC4(CC3)OC(=O)N(CC#N)C4(C)C)C2)C1 (single isomer, unassigned) [4-42 Isomer 2]", "human muscarinic M4 receptor (Homo sapiens)", "Emax", 52),
    ("CCCN1N(C)C(=O)CC12CCN(C1CC3(CCN(C(=O)OCC)C3)C1)CC2 (single isomer, unassigned) [6-10 Isomer 2]", "human muscarinic M4 receptor (Homo sapiens)", "Emax", 109),
    ("CCOC(=O)N1CCC2(CC(N3CCC4(CC3)OC(=O)N(CC3CC3)C4(C)C)C2)C1 (single isomer, unassigned) [4-39 Isomer 2]", "human muscarinic M4 receptor (Homo sapiens)", "Emax", 88),
    ("CCOC(=O)N1CCC2(CC(N3CCC4(CC3)CNC(=O)N4)C2)C1 (single isomer, unassigned) [5-2 Isomer 2]", "human muscarinic M4 receptor (Homo sapiens)", "Emax", 50),
    ("CCOC(=O)N1CCC2(CC(N3CCC4(CC3)CC(=O)NC4C)C2)C1 (single isomer, unassigned) [3-3 Isomer 2]", "human muscarinic M4 receptor (Homo sapiens)", "Emax", 81),
    ("CCOC(=O)N1CC2(CCC(N3CCC4(CC3)OC(=O)NC4(C)C)C2)C1 (single isomer, unassigned) [8-3 Isomer 2]", "human muscarinic M4 receptor (Homo sapiens)", "Emax", 39),
    ("CCOC(=O)N1CCC2(CC(N3CCC4(CC3)CC(=O)N(CC)N4CC)C2)C1 (single isomer, unassigned) [6-8 Isomer 2]", "human muscarinic M4 receptor (Homo sapiens)", "Emax", 103),
    ("COC(=O)N1CCC2(CC(N3CCC4(CC3)CC(=O)NC4Cc3ccccc3)C2)C1 (single isomer, unassigned) [3-7 Isomer 2]", "human muscarinic M4 receptor (Homo sapiens)", "Emax", 57),
    ("CCOC(=O)N1CC2(CCC(N3CCC4(CC3)OC(=O)N(CC)C4(C)C)C2)C1 (racemic) [8-4 racemic]", "human muscarinic M4 receptor (Homo sapiens)", "Emax", 91),
]

====

target: human muscarinic M4 receptor (Homo sapiens, UniProt P08173); construct: expressed in transfected cells; test: Alphascreen Surefire phospho-ERK1/2 functional assay, M4; type: cell-based; conditions: CHO, read-out: M4 % Emax cf. ACh, CHO cells stably expressing human M4; Emax relative to ACh
Sequence (P08173 whole entry): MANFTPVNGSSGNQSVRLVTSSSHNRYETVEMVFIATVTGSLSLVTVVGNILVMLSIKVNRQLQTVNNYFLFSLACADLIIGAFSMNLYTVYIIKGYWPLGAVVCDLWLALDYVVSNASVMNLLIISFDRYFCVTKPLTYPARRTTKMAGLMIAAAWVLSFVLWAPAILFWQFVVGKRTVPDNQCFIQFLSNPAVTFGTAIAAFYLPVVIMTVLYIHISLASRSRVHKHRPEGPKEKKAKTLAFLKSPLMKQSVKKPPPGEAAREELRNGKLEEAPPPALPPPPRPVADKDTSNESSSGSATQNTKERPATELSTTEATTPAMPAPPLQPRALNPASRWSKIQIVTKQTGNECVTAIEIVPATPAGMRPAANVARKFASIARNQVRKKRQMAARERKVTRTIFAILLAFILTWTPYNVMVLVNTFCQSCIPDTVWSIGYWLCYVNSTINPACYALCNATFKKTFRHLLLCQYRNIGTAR
Please use condition met for Emax under 90% and condition not met for everything else, ties included.

# Compound, Assayed system, Assigned label
data = [
    ("CCOC(=O)N1CCC2(CC(N3CCC4(CC3)CC(=O)NC4Cc3ccccc3)C2)C1 (single isomer, unassigned) [3-8 Isomer 2]", "human muscarinic M4 receptor (Homo sapiens, UniProt P08173)", "condition not met"),
    ("CCOC(=O)N1CCC2(CC(N3CCC4(CC3)OC(=O)N(CC(F)(F)F)C4(C)C)C2)C1 (single isomer, unassigned) [4-43 Isomer 2]", "human muscarinic M4 receptor (Homo sapiens, UniProt P08173)", "condition met"),
    ("CCOC(=O)N1CC2(CC(N3CCC4(CC3)OC(=O)NC4CC)C2)C1 (single isomer, unassigned) [2-1 Isomer 2]", "human muscarinic M4 receptor (Homo sapiens, UniProt P08173)", "condition not met"),
    ("CCOC(=O)N1CCC2(CC(N3CCC4(CC3)OC(=O)NC43CC(F)(F)C3)C2)C1 (single isomer, unassigned) [4-30 Isomer 1]", "human muscarinic M4 receptor (Homo sapiens, UniProt P08173)", "condition met"),
    ("CCOC(=O)N1CC2(CCC(N3CCC4(CC3)CNC(=O)C4)C2)C1 (racemic) [7-1 racemic]", "human muscarinic M4 receptor (Homo sapiens, UniProt P08173)", "condition met"),
    ("CCOC(=O)N1CC2(CC(N3CCC4(CC3)OC(=O)N(CC)C4CC)C2)C1 (racemic) [2-2 racemic]", "human muscarinic M4 receptor (Homo sapiens, UniProt P08173)", "condition met"),
    ("CCN1NC(=O)CC12CCN(C1CC3(CCN(C(=O)OC)C3)C1)CC2 (single isomer, unassigned) [6-1 Isomer 2]", "human muscarinic M4 receptor (Homo sapiens, UniProt P08173)", "condition met"),
    ("CCOC(=O)N1CC2(CC(N3CCC4(CC3)OC(=O)N(CC)C4(C)C)C2)C1", "human muscarinic M4 receptor (Homo sapiens, UniProt P08173)", "condition not met"),
    ("CCC1N(CC)C(=O)OC12CCN(C1CC3(CCN(C(=O)OC)C3)C1)CC2 (single isomer, unassigned) [4-21 Isomer 2 (racemic)]", "human muscarinic M4 receptor (Homo sapiens, UniProt P08173)", "condition met"),
    ("CCOC(=O)N1CCC2(CC(N3CCC4(CC3)CC(=O)NN4CC)C2)C1 (single isomer, unassigned) [6-2 Isomer 2]", "human muscarinic M4 receptor (Homo sapiens, UniProt P08173)", "condition not met"),
    ("[2H]C([2H])([2H])OC(=O)N1CCC2(CC(N3CCC4(CC3)CNC(=O)O4)C2)C1 (single isomer, unassigned) [4-2 Isomer 2]", "human muscarinic M4 receptor (Homo sapiens, UniProt P08173)", "condition met"),
    ("CCOC(=O)N1CCC2(CC(N3CCC4(CC3)OC(=O)N(CCF)C4(C)C)C2)C1 (single isomer, unassigned) [4-40 Isomer 2]", "human muscarinic M4 receptor (Homo sapiens, UniProt P08173)", "condition not met"),
    ("CCOC(=O)N1CCC2(CC(N3CCC4(CC3)OC(=O)N(CC)C4(C)C)C2)C1 (single isomer, unassigned) [4-35 Isomer 2]", "human muscarinic M4 receptor (Homo sapiens, UniProt P08173)", "condition not met"),
]
